Molecular target: human recombinant BACE1 (Homo sapiens (Human))
Sequence (P56817 46-501): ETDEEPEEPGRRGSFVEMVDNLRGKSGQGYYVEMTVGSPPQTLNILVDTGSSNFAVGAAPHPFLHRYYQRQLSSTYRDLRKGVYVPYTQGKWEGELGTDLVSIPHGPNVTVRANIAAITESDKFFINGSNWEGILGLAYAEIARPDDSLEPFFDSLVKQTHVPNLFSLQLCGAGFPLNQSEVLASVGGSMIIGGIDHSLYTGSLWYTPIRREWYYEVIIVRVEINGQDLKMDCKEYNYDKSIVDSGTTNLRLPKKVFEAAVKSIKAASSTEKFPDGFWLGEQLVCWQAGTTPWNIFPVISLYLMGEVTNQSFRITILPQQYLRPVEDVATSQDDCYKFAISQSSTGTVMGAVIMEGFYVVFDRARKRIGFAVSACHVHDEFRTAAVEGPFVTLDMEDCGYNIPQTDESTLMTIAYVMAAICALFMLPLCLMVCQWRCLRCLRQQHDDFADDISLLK
Experiment: In vitro enzymatic BACE1 FRET assay
Assay type: biochemical
Conditions: read-out: IC50 IP (μM) BACE1 enzyme
Sorting guide: entries reporting IC50 beneath 0.003 µM go in the true pile, the rest go in the false pile.

NC1=N[C@](CF)(c2cc(NC(=O)c3ccc(Cl)cn3)ccc2F)[C@@H]2C[C@]2(c2ccon2)S1 [Example 786] = true
C[C@]1(c2cc(NC(=O)c3cnc(OCC(F)(F)F)cn3)ccc2F)N=C(N)S[C@@]2(C(=O)N3CCCC3)C[C@H]21 [Example 634] = true
[2H]C([2H])([2H])OC[C@]12C[C@H]1[C@@](C)(c1cc(Nc3nccc4nc(OC([2H])([2H])C#C)cnc34)cnc1F)N=C(N)S2 [Example 854] = true
COC[C@]12C[C@H]1[C@@](C)(c1cc(Nc3ncnc4cc(OCc5ncco5)cnc34)cc(F)c1F)N=C(N)S2 [Example 809] = true
C#CCOc1cnc2c(Nc3cnc(F)c([C@@]4(C)N=C(N)S[C@@]5([C@H](O)C(F)(F)F)C[C@H]54)c3)nccc2n1 [Example 659] = true
C#C[C@H](C)Oc1cnc(C(=O)Nc2cc(F)c(F)c([C@@]3(C)N=C(N)S[C@@]4(C#N)C[C@H]43)c2)cn1 [Example 1011] = true
C[C@]1(c2cc(Nc3nccc4cc(C#N)cnc34)cnc2F)N=C(N)S[C@@]2(C(F)F)C[C@@H]12 [Example 657] = false
C#CCOc1cnc2c(Nc3cnc(F)c([C@@]4(C)N=C(N)S[C@@]5(CF)C[C@H]54)c3)nccc2n1 [Example 601] = true
CC#CCCOc1cnc(C(=O)Nc2ccc(F)c([C@@]3(C)N=C(N)S[C@@]4(COC)C[C@H]43)c2)cn1 [Example 1047] = false
COC[C@]12C[C@H]1[C@@](C)(c1cc(NC(=O)c3cnc(OCC4CC4)cn3)ccc1F)N=C(N)S2 [Example 1053] = false
C[C@]1(c2cc(Nc3ncnc4cc(OCc5ncco5)cnc34)cc(F)c2F)N=C(N)S[C@@]2(C(F)F)C[C@@H]12 [Example 812] = true
COC[C@H](C)Oc1cnc(C(=O)Nc2ccc(F)c([C@@]3(C)N=C(N)S[C@@]4(C(=O)NC(C)(C)C)C[C@H]43)c2)cn1 [Example 1003] = false
C[C@]1(c2cc(NC(=O)c3cnc(OCC(F)(F)F)cn3)ccc2F)N=C(N)S[C@@]2(C(=O)N3CC[C@@H](F)C3)C[C@H]21 [Example 991] = true
C#C[C@H](C)Oc1cnc(C(=O)Nc2ccc(F)c([C@@]3(C)N=C(N)S[C@@]4(COC)C[C@H]43)c2)c(C)c1 [Example 649] = false
C#CCOc1cnc(C(=O)Nc2ccc(F)c([C@@]3(CF)N=C(N)S[C@@]4(/C=C/C(=O)N(C)C)C[C@H]43)c2)cn1 [Example 774] = true
COC[C@]12C[C@H]1[C@@](C)(c1cc(NC(=O)c3cnc(OCCF)cn3)cc(F)c1F)N=C(N)S2 [Example 1064] = true
COC[C@]12C[C@H]1[C@@](C)(c1cc(NC(=O)c3cnc(OCC4COC4)cn3)cc(F)c1F)N=C(N)S2 [Example 1022] = false
COC[C@]12C[C@H]1[C@@](C)(c1cc(Nc3nccc4cc(OCc5ncco5)cnc34)cc(F)c1F)N=C(N)S2 [Example 727] = false
C#CCOc1cnc(C(=O)Nc2cc(F)c(F)c([C@@]3(C)N=C(N)S[C@@]4(CF)C[C@H]43)c2)c(Cl)c1 [Example 691] = true
C#CCOc1cnc2c(Nc3cc(F)c(F)c([C@@]4(CF)N=C(N)S[C@H]5C[C@H]54)c3)nccc2n1 [Example 841] = true
C[C@]1(c2cc(Nc3nccc4nc(OCc5ncccn5)cnc34)cc(F)c2F)N=C(N)S[C@@]2(C(F)F)C[C@@H]12 [Example 884] = false
C#CCOc1cnc(C(=O)Nc2ccc(F)c([C@@]3(C)N=C(N)S[C@@]4(C(=O)NC)C[C@H]43)c2)cn1 [Example 987] = true
C[C@]1(c2cc(Nc3nccc4nc(OCc5ncco5)cnc34)cnc2F)N=C(N)S[C@@]2(C(F)F)C[C@@H]12 [Example 654] = true
C#CCOc1cnc2c(Nc3ccc(F)c([C@@]4(CF)N=C(N)S[C@@]5(CC#N)C[C@H]54)c3)nccc2n1 [Example 720] = true
C#CCOc1cnc2c(Nc3cc(F)c(F)c([C@@]4(C)N=C(N)S[C@@]5(C(N)=O)C[C@H]54)c3)nccc2n1 [Example 911] = true
Cc1nc(OCC(F)(F)F)cnc1C(=O)Nc1cc(F)c(F)c([C@@]2(C)N=C(N)S[C@@]3(C(F)F)C[C@@H]23)c1 [Example 615] = true
